Data provenance: patent US8026271B2

- Assay remarks: Solubility of BPR0C261 in different carriers or mixed carriers
- Format: physicochemical
- Condition: organic solvent or mixture; carrier 9: Transcutol (10%), Cremophor EL (20%), and PEG 400 (70%); room temperature
Measurement type: solubility

Short answer for Cc1cc(Cn2cc(C(=O)C(=O)Nc3cc(C)ns3)c3ccccc32)on1 : solubility was 10 to 30 mg/mL

----------
- Assay remarks: Oral bioavailability of BPR0C261 (po vs IV PK profiles, plasma by HPLC-Tandem Mass spectrometry)
- Format: in vivo
- Condition: mouse, 2 mg/kg, po by gavage, formulation containing 5% DMSO, 25% Cremophor EL, and 70% water (v/v/v), vs IV 2 mg/Kg, read-out: Oral bioavailability (F %)
Measurement type: bioavailability

Just so you know, measured bioavailability for Cc1cc(Cn2cc(C(=O)C(=O)Nc3cc(C)ns3)c3ccccc32)on1 [BPR0C261] came out at 18%
